# TESTED TARGET: T1, human PAI-1 captured on immobilized human vitronectin (human, UniProt P04004 20-478)
# T1 construct: non-covalent complex formed on the chip or plate; also called PAI-1/Vn complex; Vn captured hPAI-1
# T1 sequence (chain, as listed by the source limits assumed, chain 1 of 2): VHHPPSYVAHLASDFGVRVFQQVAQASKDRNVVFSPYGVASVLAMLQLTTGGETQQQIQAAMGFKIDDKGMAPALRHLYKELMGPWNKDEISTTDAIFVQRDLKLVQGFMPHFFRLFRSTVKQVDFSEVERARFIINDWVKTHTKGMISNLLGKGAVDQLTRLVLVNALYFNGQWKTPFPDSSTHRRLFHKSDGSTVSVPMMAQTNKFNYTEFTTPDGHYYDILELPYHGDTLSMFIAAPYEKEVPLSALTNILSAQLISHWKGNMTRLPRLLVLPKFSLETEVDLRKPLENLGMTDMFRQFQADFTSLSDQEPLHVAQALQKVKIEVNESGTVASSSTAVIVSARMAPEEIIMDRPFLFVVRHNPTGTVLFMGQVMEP
# T1 sequence (P04004 20-478 limits assumed, chain 2 of 2): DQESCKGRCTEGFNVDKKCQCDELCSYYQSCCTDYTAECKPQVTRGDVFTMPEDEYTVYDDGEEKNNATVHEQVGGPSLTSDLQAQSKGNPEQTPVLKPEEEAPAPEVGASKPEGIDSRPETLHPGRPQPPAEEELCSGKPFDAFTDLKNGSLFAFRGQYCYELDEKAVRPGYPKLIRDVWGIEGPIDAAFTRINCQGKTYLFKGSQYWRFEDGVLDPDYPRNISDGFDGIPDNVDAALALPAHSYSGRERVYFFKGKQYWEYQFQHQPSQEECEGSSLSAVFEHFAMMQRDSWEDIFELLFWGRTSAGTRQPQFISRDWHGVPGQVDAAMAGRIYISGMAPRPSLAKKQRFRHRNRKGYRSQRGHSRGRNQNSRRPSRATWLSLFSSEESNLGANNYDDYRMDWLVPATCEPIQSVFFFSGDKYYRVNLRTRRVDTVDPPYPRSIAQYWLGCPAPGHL
# TEST DETAILS: Biacore, hPAI-1 on vitronectin chip, 1:1 model
RECORDED METRIC: kon
Please make sure the unit comes right after the number.

Answered examples (2):
BINDER	kon
A44 (antibody, mouse IgG1, V domains shown, mouse IgG1/kappa; also called mA44; A44 parental) VH: EMQLQESGPSLVKPSQTLSLTCSVTGDSMTNGYWNWIRKFPGNKLEYMGYITYSGSTYYNPSLKGRISITRNTSKNQYYLQLSSVTTEDTATYYCARWHYGSPYYFDYWGQGTTLTVSS VL: DIKMTQSPSSMYASLGERVTITCKASQDINSYLSWLQQKPGKSPKTLIYRANRSVDGVPSRFSGSGSGQDYSLTISSLEYEDMGIYYCLQYDEFPPTFGGGTKLEIKR	5.68e+06 M⁻¹ s⁻¹
A44-hv14 (antibody, V domains shown, humanized A44, HEK293; constant regions as for A44-hv1; also called LC4 x HC5b; variant 14) VH: QMQLQESGPGLVKPSETLSLTCTVSGDSMTNGYWNWIRQPPGKGLEYMGYITYSGSTYYNPSLKSRITISRDTSKNQYSLKLSSVTAADTAVYYCARWHYGSPYYFDYWGQGTLVTVSS VL: DIKMTQSPSSLSASVGDRVTITCKASQDINSYLSWLQQKPGKSPKTLIYRAQRSVEGVPSRFSGSGSGQDYSLTISSLQPEDLATYYCLQYDEFPPTFGGGTKLEIK	4.06e+06 M⁻¹ s⁻¹

Okay, now this binder:
Just so you know, measured kon for A44-hv1 (antibody, V domains shown, humanized A44, HEK293; also called LC1a x HC1a; variant 1) VH: EMTLKESGPTLVKPTQTLSLTCSVTGDSMTNGYWNWIRKFPGKALEYMGYITYSGSTYYNPSLKGRISITRNTSKNQYYLTLSSVTTVDTATYYCARWHYGSPYYFDYWGQGTTLTVSS VL: DIKMTQSPSSLSASVGDRVTITCKASQDINSYLSWLQQKPGKSPKTLIYRANRSVDGVPSRFSGSGSGQDYSLTISSLQPEDLGIYYCLQYDEFPPTFGGGTKLEIK came out at 1.1e+07 M⁻¹ s⁻¹

The measurements presented in this section are drawn from patent US20160200831A1.
